Target: COX-1 (Mus musculus, UniProt P22437)
Sequence (P22437 27-602): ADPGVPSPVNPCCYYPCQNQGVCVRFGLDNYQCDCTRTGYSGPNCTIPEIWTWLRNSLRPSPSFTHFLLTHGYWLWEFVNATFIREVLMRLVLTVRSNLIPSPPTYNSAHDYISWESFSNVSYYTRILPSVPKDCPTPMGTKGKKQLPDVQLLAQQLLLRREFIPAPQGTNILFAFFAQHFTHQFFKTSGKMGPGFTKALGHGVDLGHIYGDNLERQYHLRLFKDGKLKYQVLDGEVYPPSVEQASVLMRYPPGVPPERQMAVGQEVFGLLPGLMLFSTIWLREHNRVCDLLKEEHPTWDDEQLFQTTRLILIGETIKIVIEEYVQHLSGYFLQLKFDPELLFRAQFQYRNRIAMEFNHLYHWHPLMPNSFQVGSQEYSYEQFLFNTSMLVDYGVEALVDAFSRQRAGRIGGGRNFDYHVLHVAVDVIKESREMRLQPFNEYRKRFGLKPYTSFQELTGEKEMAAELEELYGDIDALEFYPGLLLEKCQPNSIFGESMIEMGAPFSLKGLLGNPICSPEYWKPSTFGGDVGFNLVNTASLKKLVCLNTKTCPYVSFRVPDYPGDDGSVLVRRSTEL
Assay: Evaluation of COX-1 activity: PGE2 formation in mouse peritoneal macrophages without aspirin and LPS treatment
Type: cell-based
Measured IC50, μg/ml COX-1 by item
Give the value in µg/mL but do not write µg/mL after it.

Look over these answered cases.
compound | scale unit | IC50, μg/ml COX-1
CC1(C)OC(c2ccc(S(C)(=O)=O)c(Cl)c2)=C(c2ccccc2)C1=O [Example 357] | µg/mL | 30
CS(=O)(=O)c1ccc(C2=C(c3cccc(F)c3)C(=O)C3(CCOCC3)O2)cc1 [Example 261] | µg/mL | 300
CC1(C)OC(c2ccc(S(C)(=O)=O)cc2)=C(c2cccc(F)c2)C1=O [Example 4] | µg/mL | 5

Alright, here's another compound for you.
# compound CC1(C)OC(c2ccc(S(N)(=O)=O)c(Cl)c2)=C(c2ccccc2)C1=O [Example 367] ; its IC50, μg/ml COX-1 = 8

====

Target: COX-2 (Mus musculus, UniProt Q05769)
Sequence (Q05769 18-604): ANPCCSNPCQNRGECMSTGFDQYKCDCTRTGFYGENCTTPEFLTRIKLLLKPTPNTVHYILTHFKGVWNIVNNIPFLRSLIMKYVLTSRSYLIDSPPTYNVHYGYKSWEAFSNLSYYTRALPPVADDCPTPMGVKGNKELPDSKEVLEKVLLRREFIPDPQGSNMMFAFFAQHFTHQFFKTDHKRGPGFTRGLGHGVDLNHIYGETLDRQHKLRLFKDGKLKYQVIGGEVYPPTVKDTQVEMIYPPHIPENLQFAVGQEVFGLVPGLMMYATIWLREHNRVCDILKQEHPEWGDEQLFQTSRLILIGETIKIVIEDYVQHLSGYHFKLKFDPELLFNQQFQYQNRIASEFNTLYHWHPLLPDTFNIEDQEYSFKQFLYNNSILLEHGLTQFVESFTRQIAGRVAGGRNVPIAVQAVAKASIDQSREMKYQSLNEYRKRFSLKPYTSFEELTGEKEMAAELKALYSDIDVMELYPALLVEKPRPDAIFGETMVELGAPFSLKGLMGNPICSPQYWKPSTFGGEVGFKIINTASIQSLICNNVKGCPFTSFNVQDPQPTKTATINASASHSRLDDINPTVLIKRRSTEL
Assay: Evaluation of COX-2 activity: PGE2 formation in aspirin-treated, LPS-stimulated mouse peritoneal macrophages
Assay type: cell-based
Measured IC50, μg/ml COX-2 by item
Give the value in µg/mL but do not write µg/mL after it.

compound | IC50, μg/ml COX-2 [µg/mL]
COc1ccccc1C1=C(c2ccc(S(C)(=O)=O)cc2)OC(C)(C)C1=O | 0.1

The value of IC50, μg/ml COX-2 recorded for CC1(C)OC(c2ccc(S(C)(=O)=O)cc2F)=C(c2cc(F)cc(F)c2)C1=O when tested on COX-2 (Mus musculus, UniProt Q05769) reads 0.03

The value of IC50, μg/ml COX-2 recorded for CC1(C)OC(c2ccc(S(C)(=O)=O)cc2)=C(c2ccsc2)C1=O when tested on COX-2 (Mus musculus, UniProt Q05769) reads 0.2

The value of IC50, μg/ml COX-2 recorded for CC1(C)OC(c2ccc(S(N)(=O)=O)cc2)=C(c2ccccc2F)C1=O when tested on COX-2 (Mus musculus, UniProt Q05769) reads 0.016

The value of IC50, μg/ml COX-2 recorded for CCC1(CC)OC(c2ccc(S(C)(=O)=O)cc2)=C(c2ccc(F)c(Cl)c2)C1=O when tested on COX-2 (Mus musculus, UniProt Q05769) reads 0.03

The value of IC50, μg/ml COX-2 recorded for CC1(C)OC(c2ccc(S(N)(=O)=O)cc2F)=C(c2ccc(F)cc2)C1=O when tested on COX-2 (Mus musculus, UniProt Q05769) reads 0.03

The value of IC50, μg/ml COX-2 recorded for CC1(C)OC(c2ccc(S(C)(=O)=O)c(Br)c2)=C(c2cc(F)cc(F)c2)C1=O when tested on COX-2 (Mus musculus, UniProt Q05769) reads 0.03

The value of IC50, μg/ml COX-2 recorded for CC1(C)OC(c2ccc(S(C)(=O)=O)c(F)c2)=C(c2ccc(F)cc2)C1=O when tested on COX-2 (Mus musculus, UniProt Q05769) reads 0.05

The value of IC50, μg/ml COX-2 recorded for CC1(C)OC(c2ccc(S(C)(=O)=O)cc2F)=C(c2ccccc2)C1=O when tested on COX-2 (Mus musculus, UniProt Q05769) reads 0.03

====

Measured melting point by item

structure notation | melting point
CC1(C)OC(c2ccc(S(C)(=O)=O)c(F)c2)=C(c2ccc([N+](=O)[O-])cc2)C1=O | 173 to 174 °C
CC1(C)OC(c2ccc(S(N)(=O)=O)c(F)c2)=C(c2cccc(F)c2)C1=O | 178 to 179 °C
CCCc1ccc(C2=C(c3ccc(S(C)(=O)=O)cc3)OC(C)(C)C2=O)cc1 | 99 to 100 °C
CC1(C)OC(c2ccc(S(N)(=O)=O)c(Cl)c2)=C(c2cccc(Cl)c2)C1=O | 162 to 163 °C
CC1(C)OC(c2ccc(S(N)(=O)=O)cc2)=C(c2cc3ccccc3s2)C1=O | 120 to 121 °C
CCSc1ccc(C2=C(c3ccc(S(C)(=O)=O)cc3)OC(C)(C)C2=O)cc1 | 103 to 105 °C

Alright, here's another compound for you.
# compound CC1(C)OC(c2ccc(S(C)(=O)=O)c(F)c2)=C(c2ccc(F)cc2F)C1=O ; its melting point = 183 to 184 °C

====

Target: COX-2 (Mus musculus)
Assay: Evaluation of COX-2 activity: PGE2 formation in aspirin-treated, LPS-stimulated mouse peritoneal macrophages
Assay type: cell-based
Settings: read-out: IC50, μg/ml COX-2 (converted)
IC50 under 80 nM gets YES, anything at or over 80 nM gets NO.

Some entries whose results are on file:
compound | class assignment
CCC1(C)OC(c2ccc(S(C)(=O)=O)cc2)=C(c2cccc(C(F)(F)F)c2)C1=O (stereo not drawn) [Example 194] | NO
CCC1(C)OC(c2ccc(S(C)(=O)=O)cc2)=C(c2cccc(Cl)c2)C1=O (stereo not drawn) [Example 195] | YES
CCC1(C)OC(c2ccc(S(C)(=O)=O)cc2)=C(c2cccc(C(C)C)c2)C1=O (stereo not drawn) [Example 201] | NO
CCC1(C)OC(c2ccc(S(C)(=O)=O)cc2)=C(c2ccc(OC)c(F)c2)C1=O (stereo not drawn) [Example 214] | YES
CCCc1ccc(C2=C(c3ccc(S(C)(=O)=O)cc3)OC(C)(CC)C2=O)cc1 (stereo not drawn) [Example 202] | YES
CCC1(C)OC(c2ccc(S(C)(=O)=O)cc2)=C(c2cccc(OC)c2)C1=O (stereo not drawn) [Example 200] | NO
CCC1(C)OC(c2ccc(S(C)(=O)=O)cc2)=C(c2ccc(Cl)c(C(F)(F)F)c2)C1=O (stereo not drawn) [Example 198] | YES

From here, focus on the item given below.
Is IC50 strictly under 80 nM for the entry CCC1(C)OC(c2ccc(S(C)(=O)=O)cc2)=C(c2ccccc2F)C1=O (stereo not drawn) [Example 188] ?
NO

====

Target: COX-2 (Mus musculus)
Test: Evaluation of COX-2 activity: PGE2 formation in aspirin-treated, LPS-stimulated mouse peritoneal macrophages
Type: cell-based
parameter: IC50, μg/ml COX-2 (µg/mL)
Give the value in µg/mL but do not write µg/mL after it.

compound | system | parameter | result value
CCCCc1ccc(C2=C(c3ccc(S(C)(=O)=O)cc3)OC(C)(C)C2=O)cc1 | COX-2 (Mus musculus) | IC50, μg/ml COX-2 | 0.002

# compound CC1(C)OC(c2ccc(S(C)(=O)=O)c(F)c2)=C(c2ccc(F)cc2F)C1=O ; its IC50, μg/ml COX-2 = 0.1

# compound CC1(C)OC(c2ccc(S(C)(=O)=O)cc2)=C(c2ccc(C=O)s2)C1=O ; its IC50, μg/ml COX-2 = 0.2

# compound CC(=O)c1cccc(C2=C(c3ccc(S(C)(=O)=O)cc3)OC(C)(C)C2=O)c1 ; its IC50, μg/ml COX-2 = 0.05

# compound Cc1cc(C2=C(c3cccc(F)c3)C(=O)C(C)(C)O2)ccc1S(C)(=O)=O ; its IC50, μg/ml COX-2 = 0.03

# compound C[S+]([O-])c1ccc(C2=C(c3cccc(Cl)c3)C(=O)C(C)(C)O2)cc1 (centres unmarked) ; its IC50, μg/ml COX-2 = 0.3

# compound CC1(C)OC(c2ccc(S(N)(=O)=O)cc2)=C(c2cccc(Cl)c2)C1=O ; its IC50, μg/ml COX-2 = 0.014

# compound CC1(C)OC(c2ccc(S(C)(=O)=O)c(F)c2)=C(c2cc(F)cc(F)c2)C1=O ; its IC50, μg/ml COX-2 = 0.03
